Test system: COLO 205 colon
procedure-text: NCI tumour cell line growth inhibition, 48 h
readout-label: GI50

Measured GI50 (COLO 205 colon), entry CNC(=O)c1cc(Oc2ccc(NC(=O)Nc3ccc(Cl)c(OC(F)(F)F)c3)c(F)c2)ccn1 : 1.14 µM

Observed GI50, COLO 205 colon, C=C(C)[C@@H]1CC[C@@]2(C(=O)O)CC[C@]3(C)C(CCC4[C@@]5(C)CCC(OS(=O)(=O)c6ccccc6)C(C)(C)C5CC[C@]43C)C12 (stereo partly drawn) : 5.66 µM

The observed GI50 for C=C1C(=O)O[C@H]2[C@H]1CC/C(COC(=O)c1cc3cc(OC)ccc3[nH]1)=C\CC[C@@]1(C)O[C@@H]21 when tested with COLO 205 colon stands at 1.18 µM

====

Give GI50 for every item shown.
System: KM12 colon
procedure-text: NCI tumour cell line growth inhibition, 48 h

O=C(Nc1cc(-c2ccccc2)[nH]n1)c1ccc(Cl)cc1 has a reported GI50 of 3.28 µM

The molecule listed as COc1cc2c3c(n(CCCN4CCC(N)CC4)c(=O)c2cc1OC)-c1cc2c(cc1C3=O)OCO2 has a reported GI50 of 0.619 µM

Reported GI50 for C=C1CC(COc2cc(Cl)nc(N)n2)C1 was 25.5 µM

In plain terms, C=CCOc1c(Br)cc(Br)cc1Br has a documented GI50 of 14.1 µM

Briefly, GI50 measured for CC(=O)[CH-]C(C)=O.CC(=O)[CH-]C(C)=O.N=CC=N.[Sn+2] : 2.94 µM

GI50 in this record for Clc1ccc(OCc2nnc3n2N=C(c2ccc(Cl)cc2Cl)CS3)c(Cl)c1 : 25.5 µM

Kindly note the recorded GI50 for Oc1ccc(Cc2ccccc2)c2cccnc12 , which is 2.07 µM

The molecule listed as C=CC(=O)N1CCN(c2ncnc3c(F)c(-c4c(O)cccc4F)c(Cl)cc23)CC1 has a reported GI50 of 11.7 µM

Data point: CCN(Cc1c(F)cccc1F)c1ccc(CO)c(Cl)c1 ; GI50 = 11.4 µM

Record CNc1nc(NC2CCCC2)nc(Sc2ccc(OC)cc2)n1 . Reported GI50: > 10 µM

GET /value?item= CNC(=O)c1cc(Oc2ccc(NC(=O)Nc3ccc(Cl)c(OC(F)(F)F)c3)c(F)c2)ccn1 &field=GI50 returns 1.17 µM

The measured GI50 associated with CCCCCCNc1nc(NCCCCCC)c2[nH]c(NCCCCCC)nc2n1 reads 8.01 µM

Entry N#Cc1c(-c2ccccc2)nc2c(c(-c3ccccc3)nn2-c2ccccc2)c1-c1ccc(O)cc1 , GI50 reported as 2.02 µM

Reported GI50 for COc1ccc(C2C(C#N)=C(N)OC3=C2CCCc2ccc(F)cc23)cc1OC (stereo not drawn) was 19.1 µM

Sample Cc1ncc(NC(=O)c2ccc(CN3CCN(C)CC3)c(C(F)(F)F)c2)cc1Nc1nccc(-c2cccnc2)n1 ; GI50 observed: 15.3 µM

Item: C=CC(=O)Nc1cccc(Nc2nc(Nc3ccc(OCCOC)cc3)ncc2F)c1 | GI50: 3.43 µM

The molecule CN1CCN(Cc2ccc(NC(=O)c3ccc(C(C)(C)C)c(C#Cc4cnc5cccnn45)c3)cc2C(F)(F)F)CC1 showed GI50 equal to 0.861 µM

Lab note: C[C@H]1CCC/C=C/[C@@H]2C[C@H](N)C[C@H]2[C@H](O)/C=C/C(=O)O1 gave GI50 of 71.4 µM

====

System: SW-620 colon
procedure-text: NCI tumour cell line growth inhibition, 48 h
readout-label: TGI

According to the records, this compound COc1cc2c3c(n(C)c(=O)c2cc1OC)-c1cc2c(cc1/C3=C/CCCCBr)OCO2 displays TGI of > 100 µM

Kindly note the recorded TGI for O=C1N[C@@H](O)[C@@H]2ON=C(c3ccccc3)[C@H]12 , which is > 100 µM

get_value(item= Cc1ncc([N+](=O)[O-])n1CCNC(=O)CCCCn1ccnc1[N+](=O)[O-] , readout=TGI) returns > 100 µM

Lookup result for O=CN(O)CC(=O)O ; measured TGI: > 100 µM

Record summary for O=C1c2c(c3c4ccc(Br)cc4oc3c3[nH]c4ccccc4c23)C(=O)N1O : reported TGI = > 100 µM

Just so you know, measured TGI for Cc1ccc2c(c1)C(=O)/C(=C\c1ccc(Cl)cc1)CCS2(=O)=O came out at 12.1 µM

Reported TGI for COC(=O)/C=C\S/C(=C(/c1ccccc1)n1ccc(C(=O)OC)n1)c1ccccc1 was > 100 µM

// sample COc1cc(CCCOC2OC(COC3OCC(O)C(O)C3O)C(O)C(O)C2O)cc2cc(-c3ccc4c(c3)OCO4)oc12 (centres undefined) , its TGI was > 175 µM

Item: COC(=O)C(=O)C(C(=O)C(=O)Nc1cc([N+](=O)[O-])ccc1C#N)c1nc2ccccc2[nH]c1=O (centres undefined) | TGI: > 100 µM

// CCN(Cc1c(F)cccc1F)c1ccc(CO)c(Cl)c1 : TGI value = > 90.4 µM

Documented TGI of COc1ccc(CCCCl)c(C2=NCCc3ccccc32)c1 : > 100 µM

In plain terms, CCOC(=O)Cc1nc(/C(C#N)=C/c2ccco2)[nH]c(=O)c1C#N has a documented TGI of > 100 µM

Consider CCNC(=S)N/N=C/c1ccccn1 . Its measured TGI is > 100 µM

Entry Clc1ccc(OCc2nnc3n2N=C(c2ccc(Cl)cc2Cl)CS3)c(Cl)c1 ; TGI = > 100 µM

TGI reading for CC12CCC(C/C1=N\NC(N)=O)C2(C)C (centres undefined) : > 100 µM

Noted for O=C1NN=C(c2c[nH]c3ccccc23)CC1NCc1ccccc1 (centres undefined) : its TGI reads > 100 µM

Lab note: measured TGI of Clc1cccc(C2ON=C(c3ccccc3)N2C23CC4CC(CC(C4)C2)C3)c1Cl (centres undefined) was > 10 µM

For record COc1cc2c3c(n(CCCN4CCC(N)CC4)c(=O)c2cc1OC)-c1cc2c(cc1C3=O)OCO2 the listed TGI is 1.43 µM

For record COc1cc(-c2cn(C)c(=O)c(C)c2C)cc(OC)c1CN1CC[C@H](N2CCN(c3ccc(N[C@H]4CCC(=O)NC4=O)cc3F)CC2)C(F)(F)C1 the listed TGI is 38 µM

Per the records, this compound ( Clc1cc(Cl)c2c(Cl)cc(Cl)c3c2c1N=S=N3 ) has TGI equal to > 100 µM

For this compound ( COn1cc(CO)c2ccccc21 ), measured TGI is > 100 µM

TGI reported for this compound CCn1c(-c2nonc2N)nc2ccc(F)cc21 : > 25 µM

The compound listed as CCOC1NC(=O)c2ccccc21 (centres undefined) has a reported TGI of > 100 µM

// recorded TGI for CCN(CCO)CCNc1ccc(C)c2sc3cc(Cl)ccc3c(=O)c12 : 2.77 µM

What the record says about CCN(C(=O)N[C@H](C(=O)N[C@@H](C)C(=O)OC)C(C)C)c1ccccc1 : TGI is > 100 µM

Query O=c1oc2ccccc2c2nc3ccccc3cc12 yields TGI of > 100 µM

Kindly note the recorded TGI for Brc1ccc2c(c1)-c1nc3c(cc1CC2)CCc1ccc(Br)cc1-3 , which is > 100 µM

According to the records, this compound CCCCCC(C(O)C#N)C(O)(C(F)(F)F)C(F)(F)F (centres undefined) displays TGI of > 10 µM

The value of TGI measured for the compound O=C(c1ccccc1)[C@H]1Nc2cnccc2C2c3ccccc3CC21 (some centres undefined) turned out to be 47.3 µM

According to the records, this compound COc1ccc(NC2=C(Br)C(=O)C(C)=C(C)C2=O)cc1 displays TGI of 4.54 µM

Looking up COC(=O)C1=C(C(=O)OC)C2(C)CCC(=O)C1O2 (centres undefined) , I see its TGI listed as > 10 µM

Quick note, TGI for N#CC(C#N)=Cc1cccc(Oc2ccccc2)c1 landed at 58.7 µM

Sure, the documented TGI for COc1ccc(C2C(C#N)=C(N)OC3=C2CCCc2ccc(F)cc23)cc1OC (centres undefined) is 30.3 µM

// field: TGI; key: c1cc[c]([Sn]([S]c2cccc3cccnc23)([c]2ccccc2)[c]2ccccc2)cc1 ; value = 0.0918 µM

GET /value?item= CC/C=C\C/C=C\C/C=C\CCCCCCCC(=O)OC(COC(=O)CCCCCCCCCCCCCCCCC)COC1OC(CO)C(O)C(O)C1O (centres undefined) &field=TGI returns > 25 µM

For CC/C=C\C/C=C\C1CC(=O)NCCCNCCCCN1 (centres undefined) the compound record lists TGI as > 100 µM

Lookup result for Oc1ccc(Cc2ccccc2)c2cccnc12 ; measured TGI: 54.8 µM

Field TGI (entry C(=N/Nc1ccc(-c2nc3ccccc3[nH]2)cc1)/c1c(-c2ccccc2)[nH]c2ccccc12 ) reads 75 µM

Briefly, TGI measured for COc1ccc(N2C(=O)C3c4[nH]c5ccccc5c4C4C(C)CCCC4C3C2=O)cc1 (centres undefined) : > 100 µM

Data point: CCCSc1cc(Cl)nc(N)n1 ; TGI = > 100 µM

Given item COC1OC2COC(C)(C)OC2C2OC(C)(C)OC12 (centres undefined) , the value recorded as its TGI is > 100 µM

Value of measured TGI for the entry CCOC(=O)[C@@H](C)C[C@H](Cc1ccccc1)NC(=O)c1csc([C@@H](C[C@H](C(C)C)N(C)C(=O)[C@@H](NC(=O)[C@H]2CCCCN2C)C(C)(C)C)OC(C)=O)n1 : > 16.7 µM

The compound NS(=O)(=O)c1nnc(NSc2ccc([N+](=O)[O-])cc2)s1 showed TGI equal to > 100 µM

The measured TGI associated with CNc1nc(NC2CCCC2)nc(Sc2ccc(OC)cc2)n1 reads > 10 µM

src = PubChem BioAssay (NCI)
